Tested on: TBK1
measurementSetup: concentration: 1 μM, replicates: in singlicate; n = 1;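 further: KINOMEscan kinase panel screen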
readoutType: %Inh (%)
Enter your answer as a number in %; do not include the unit.

Example entries and their recorded answers appear below.
>>> reportedresult("O=C(Nc1n[nH]c2nc(-c3cccs3)c(Br)cc12)C1CCCC1 [SB-743341]")
0
>>> reportedresult("CS(=O)(=O)CCNCc1nc(-c2ccc3ncnc(Nc4ccc(OCc5ccccc5)c(Cl)c4)c3c2)cs1.Cl [GW582764]")
0

Query: Under TBK1: %Inh value of Cc1ccc(-c2nc(Nc3ccncc3)c3ccccc3n2)s1 [GSK189015] ?
Reply: 7

Query: Under TBK1: %Inh value of Fc1ccc(-c2nc3n(c2-c2ccncc2)CCS3)cc1 [GI98581] ?
Reply: 5

Query: Under TBK1: %Inh value of Nc1ncnc2occ(-c3ccc4c(c3)CCN4C(=O)Cc3cc(F)ccc3F)c12 [GSK2645446] ?
Reply: 10

Query: Under TBK1: %Inh value of COc1nccc(-c2c(-c3ccc(F)cc3)ncn2CCCN2CCOCC2)n1 [SB-282852] ?
Reply: 19

Query: Under TBK1: %Inh value of COC(=O)C(Cc1ccccc1)NC(=O)NC1CCN(c2ccnc(Nc3ccc(F)cc3)n2)C1 (stereo not shown) [GSK1379714] ?
Reply: 21

Query: Under TBK1: %Inh value of COc1ccc(Nc2nccc(N3CCC(NC(=O)c4cc5ccccc5s4)C3)n2)cc1 (stereo not shown) [GSK1379738] ?
Reply: 22

Query: Under TBK1: %Inh value of CC[C@@H]1CO[C@H](C(=O)Nc2ccccc2)CN1c1cc(-c2ccc3c(N)n[nH]c3c2)nc(NC)n1 [GSK2376236] ?
Reply: 31

Query: Under TBK1: %Inh value of Cn1cncc1C(=O)NC1CCN(c2ccnc(Nc3ccc(F)cc3)n2)C1 (stereo not shown) [GSK1379717] ?
Reply: 9

Query: Under TBK1: %Inh value of Cc1ccccc1Cn1ccn2c(=O)cc(N3CCOCC3)nc12 [GSK2269905] ?
Reply: 0

Query: Under TBK1: %Inh value of Cc1cccc2c(-c3ccncn3)c(-c3ccc(F)cc3)nn12 [GW515532] ?
Reply: 0

###

Test system: PDGFRA
measurementSetup: concentration: 1 μM, replicates: in singlicate; n = 1
%Inh listing for selected compounds.
Enter your answer as a number in %; do not include the unit.

Example entries and their recorded answers appear below.
>>> reportedresult("Cc1ccc(NC(=O)Nc2ccccc2F)cc1-c1ccc(C(=O)Nc2ccncc2)cc1")
50
>>> reportedresult("CNc1nc(-c2ccc3c(N)n[nH]c3c2)cc(N2C[C@@H](C(=O)Nc3ccccc3)CC[C@H]2C)n1")
0
>>> reportedresult("COc1ccc(CSc2nnc(-c3ccc4c(c3)CCO4)o2)cc1")
0
>>> reportedresult("O=C(Nc1n[nH]c2nc(-c3ccco3)c(Br)cc12)C1CCN(Cc2ccccc2)C1.O=C(O)[C@H](O)[C@@H](O)C(=O)O (centres unmarked)")
7
>>> reportedresult("COc1ccc(CSc2nnc(-c3ccc4ncsc4c3)o2)cc1C(F)(F)F")
0

Query: Param item = `O=C(Nc1n[nH]c2nc(-c3cccs3)c(Br)cc12)C1CCCC1` ; retrieve measured %Inh.
Reply: 32

Query: Param item = `COc1nccc(-c2c(-c3ccc(F)cc3)ncn2CCCN2CCOCC2)n1` ; retrieve measured %Inh.
Reply: 17

Query: Param item = `COc1ccc(Nc2nccc(-c3ccc(NC(=O)c4cc5cc(F)ccc5[nH]4)cc3)n2)cc1` ; retrieve measured %Inh.
Reply: 0

###

%Inh listing for selected compounds.
Test system: SGK2
measurementSetup: concentration: 1 μM, replicates: in singlicate; n = 1
Enter your answer as a number in %; do not include the unit.

Example entries and their recorded answers appear below.
>>> reportedresult("COc1cccc(NC(=O)Nc2ccc(C)c(-c3ccc(C(=O)Nc4ccncc4)cc3)c2)c1")
0
>>> reportedresult("O=c1cc(N2CCOCC2)nc2n(Cc3ccccc3F)ccn12")
0
>>> reportedresult("COc1ccc(Nc2nccc(N3CCC(NC(=O)C(C)c4ccc(Cl)cc4)C3)n2)cc1 (centres unmarked)")
11

Query: Under SGK2: %Inh value of `COc1ccc(CSc2nnc(-c3ccc4ncsc4c3)o2)cc1C(F)(F)F` ?
Reply: 0

Query: Under SGK2: %Inh value of `Cc1cccc2c(-c3ccncn3)c(-c3ccc(F)cc3)nn12` ?
Reply: 14

###

System: MKNK2
measurementSetup: concentration: 1 μM, replicates: in singlicate; n = 1
Respond with TRUE for %Inh values of 20% and above, FALSE for values below.

Recorded results for 3 molecules are shown here.
>>> discretelabel("Cc1ccc(NC(=O)Nc2ccc(Cl)cc2)cc1-c1ccc(C(=O)Nc2ccncc2)cc1")
"FALSE"
>>> discretelabel("Cn1cncc1-c1cc2c(Nc3ccc(OCc4ccccc4)cc3)ncnc2cn1")
"TRUE"
>>> discretelabel("CS(=O)(=O)CCNCc1nc(-c2ccc3ncnc(Nc4ccc5c(cnn5Cc5ccccc5)c4)c3c2)cs1.Cl.Cl")
"TRUE"

Query: Quick check: does `COc1ccc2cc(-c3nc(-c4ccccc4C(C)C)[nH]c3-c3ccncc3)ccc2c1` have %Inh greater than or equal to 20%?
Reply: TRUE

Query: Quick check: does `O=c1cc(N2CCOCC2)nc2n(Cc3cccc(Cl)c3Cl)c3ccccc3n12` have %Inh greater than or equal to 20%?
Reply: FALSE

###

Tested on: BRK
Construct: gene PTK6
measurementSetup: concentration: 1 μM, replicates: in singlicate; n = 1
Respond with condition met for %Inh values of 3% and above, condition not met for values below.

Recorded results for 4 compounds are shown here.
>>> discretelabel("COc1ccc2cc(-c3nc(-c4ccccc4C(C)C)[nH]c3-c3ccncc3)ccc2c1")
"condition met"
>>> discretelabel("FC(F)(F)c1ccccc1-c1cc(-c2c[nH]nc2-c2ccccn2)ccn1")
"condition met"
>>> discretelabel("Nc1ncnc2occ(-c3ccc4c(c3)CCN4C(=O)Cc3cc(F)ccc3F)c12")
"condition met"
>>> discretelabel("Cc1cccc2c(-c3ccncn3)c(-c3ccc(F)cc3)nn12")
"condition not met"

Query: Quick check: does COC(=O)C(Cc1ccccc1)NC(=O)NC1CCN(c2ccnc(Nc3ccc(F)cc3)n2)C1 (stereo not drawn) have %Inh greater than or equal to 3%?
Reply: condition met

Query: Quick check: does `Cc1ccc(-c2nc(Nc3ccncc3)c3ccccc3n2)s1` have %Inh greater than or equal to 3%?
Reply: condition met

Query: Quick check: does `CCn1c(-c2c(N)noc2C)nc2cnccc21` have %Inh greater than or equal to 3%?
Reply: condition not met

Query: Quick check: does Cn1cncc1C(=O)NC1CCN(c2ccnc(Nc3ccc(F)cc3)n2)C1 (stereo not drawn) have %Inh greater than or equal to 3%?
Reply: condition not met

###

Test system: CDK4
measurementSetup: concentration: 1 μM, replicates: in singlicate; n = 1
readoutType: %Inh (%)
Enter your answer as a number in %; do not include the unit.

Query: Param item = `COc1ccc(-c2coc3ccc(-c4nnc(C)o4)cc23)cc1` ; retrieve measured %Inh.
Reply: 0

###

Tested on: HIPK1
measurementSetup: concentration: 1 μM, replicates: in singlicate; n = 1
readoutType: %Inh (%)
Enter your answer as a number in %; do not include the unit.

Example entries and their recorded answers appear below.
>>> reportedresult("O=c1cc(N2CCOCC2)nc2n(Cc3cccc(Cl)c3Cl)c3ccccc3n12 [GSK2299009]")
9
>>> reportedresult("CNCc1ccc2nc(NC(=O)c3ccc(C(C)(C)C)cc3)cn2c1")
17
>>> reportedresult("Cc1cccc2c(-c3ccncn3)c(-c3ccc(F)cc3)nn12 [GW515532]")
0

Okay, next one:
Query: Param item = Nc1ncnc2occ(-c3ccc4c(c3)CCN4C(=O)Cc3cc(F)ccc3F)c12 [GSK2645446] ; retrieve measured %Inh.
Reply: 0

###

%Inh listing for selected compounds.
Test system: INSRR
measurementSetup: concentration: 1 μM, replicates: in singlicate; n = 1
Enter your answer as a number in %; do not include the unit.

>>> reportedresult("CS(=O)(=O)Cc1ccc(Nc2nccc(-c3c(-c4cccc(NC(=O)C5CCCCC5)c4)nn4ncccc34)n2)cc1 [GSK350559]")
20

Query: Under INSRR: %Inh value of O=c1cc(N2CCOCC2)nc2n(Cc3cccc(Cl)c3Cl)c3ccccc3n12 [GSK2299009] ?
Reply: 7

Query: Under INSRR: %Inh value of COc1cccc(C2=C(Nc3cc(Cl)c(O)c(Cl)c3)C(=O)NC2=O)c1 [SB-390767] ?
Reply: 0

###

System: PKAC-beta
Construct: gene PRKACB
measurementSetup: concentration: 1 μM, replicates: in singlicate; n = 1
readoutType: %Inh (%)
Enter your answer as a number in %; do not include the unit.

Example entries and their recorded answers appear below.
>>> reportedresult("Cc1ccc(-c2nc(Nc3ccncc3)c3ccccc3n2)s1")
18
>>> reportedresult("COC(=O)C(Cc1ccccc1)NC(=O)NC1CCN(c2ccnc(Nc3ccc(F)cc3)n2)C1 (stereo not shown)")
0
>>> reportedresult("Nc1ncnc2occ(-c3ccc4c(c3)CCN4C(=O)Cc3cc(F)ccc3F)c12")
8
>>> reportedresult("Cc1nccc(-c2c(-c3ccc(F)cc3)ncn2CCCN2CCOCC2)n1.Cl")
0
>>> reportedresult("Cc1ccc(NC(=O)Nc2ccccc2)cc1-c1ccc(C(=O)Nc2ccncc2)cc1")
0
>>> reportedresult("c1ccc(-c2ccnc3[nH]ccc23)cc1")
8
>>> reportedresult("Cc1cccc2c(-c3ccncn3)c(-c3ccc(F)cc3)nn12")
15
>>> reportedresult("Nc1cccc(-c2ccc3c(N)n[nH]c3c2)n1")
0

Query: Param item = `CC(=O)c1c(C)c2cnc(Nc3ccn(C)n3)nc2n(C2CCCC2)c1=O` ; retrieve measured %Inh.
Reply: 0

Query: Param item = `Fc1ccc(-c2nc[nH]c2-c2ccncc2)cc1` ; retrieve measured %Inh.
Reply: 0

Query: Param item = COc1ccc(Nc2nccc(N3CCC(NC(=O)c4cc5ccccc5s4)C3)n2)cc1 (stereo not shown) ; retrieve measured %Inh.
Reply: 0

Query: Param item = `COc1ccc(Nc2nccc(NCCNC(=O)Nc3cc(C)ccc3C)n2)cc1` ; retrieve measured %Inh.
Reply: 0

Query: Param item = `CNc1nc(-c2ccc3c(N)n[nH]c3c2)cc(N2C[C@@H](C(=O)Nc3ccccc3)CC[C@H]2C)n1` ; retrieve measured %Inh.
Reply: 66

Query: Param item = `O=C(Nc1n[nH]c2cc(-c3ccsc3)ccc12)C1CC1` ; retrieve measured %Inh.
Reply: 18
